Where do the numbers come from? From PubChem BioAssay AID1508600.

Experiment: Components of the Cytosolic LPS Sensing Pathway: Gene Identification via Genome-wide siRNA Screen;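 note: robust z of the log signal after scaling to non-targeting control siRNA wells of the plate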
Conditions: RAW264.7 macrophages, IL-1a HTRF, actives lie on both sides, screened at 100 nM (by protocol), cells primed 5 h with Pam3CSK4 first
In all, about 53,000 sequences went through this assay and about 3,700 (7%) were called active. Shown is part of a subset that was picked to be rich in actives.
This section presents sequences with their documented z-score values.
Please reply with the value in numeric form only.

Residue Sequence | Measured
GGCACUACCACAAGUAUAGTT against 1700073E17Rik | 0.0893
CCUUGGGAAUUACCCAGAGTT against Cage1 | -0.565
CCCUAGAAGAAUCAAGCUCTT against Prune2 | -1.35
GGAUUCUUGGAGCUCAUUATT against Stag3 | -2.46
GCACAAGAAAUCGAAUAUGTT against Acr | -0.00119

Data request: Entry under review: GGGAGUCUGGUGGAUUGAUTT against Rln1 . Reported z-score?
Data returned: 0.0253
